# Activity values compiled below
Test system: Human immunodeficiency virus 2
Assay: Antiviral activity against HIV2 ROD in human MT4 cells assessed as protection against virus-induced cytopathogenicity by MTT assay
Format: functional, organism-based
Design: concentration or dose not given beside the values
Measurement Name: Activity (%)

>>> observed_measurement("C=CCn1c(-c2ccc(NC(=S)Nc3ccccc3)cc2)n[nH]c1=S")
0
>>> observed_measurement("C=CCNC(=S)Nc1ccc(-c2nnc(SCc3ccc(Cl)cc3Cl)n2-c2ccccc2)cc1")
0
>>> observed_measurement("C=CCNC(=S)Nc1ccc(-c2n[nH]c(=S)n2-c2ccccc2)cc1")
0
>>> observed_measurement("Nc1ccc(OCc2n[nH]c(=S)n2-c2ccccc2)cc1")
2.5
>>> observed_measurement("CCNC(=S)Nc1ccc(-c2n[nH]c(=S)n2-c2ccccc2)cc1")
3
>>> observed_measurement("C=CCn1c(-c2ccc(NC(=S)NC)cc2)n[nH]c1=S")
0
>>> observed_measurement("CCCCCCNC(=S)Nc1ccc(-c2n[nH]c(=S)n2-c2ccccc2)cc1")
3
>>> observed_measurement("Cn1c(COc2ccc(NC(=S)Nc3ccccc3)cc2)n[nH]c1=S")
6.5
>>> observed_measurement("C=CCNC(=S)Nc1ccc(-c2nnc(SCc3ccc(Cl)cc3Cl)n2C)cc1")
5
>>> observed_measurement("C=CCNC(=S)Nc1ccc(-c2n[nH]c(=S)n2CCCCCC)cc1")
0
>>> observed_measurement("C=CCNC(=S)Nc1ccc(-c2n[nH]c(=S)n2CCc2ccccc2)cc1")
0
